Test: Colonic intubation study: plasma pharmacokinetics of rabeprazole and esomeprazole
Type: in vivo, human
Conditions: male, human, plasma, po, 20 mg, rabeprazole following oral administration; read-out: median plasma half-life (converted)
QUANTITY MEASURED: half-life

compound="COCCCOc1ccnc(C[S+]([O-])c2nc3ccccc3[nH]2)c1C (stereo not shown)" value="~1 h"

====

Experiment: Colonic intubation study: plasma pharmacokinetics of rabeprazole and esomeprazole
Assay type: in vivo, human
Conditions: male, human, plasma, po, 40 mg, TRT E: esomeprazole 40 mg oral tablet; single dose; healthy males; N = 19
Experimental: A single-dose, open-label, partially randomized, five-treatment, five-period, crossover pilot study was performed in healthy males to determine relative pharmacokinetics of rabeprazole, and comparators when dosed either orally or colonically. The study was a single dose study with blood sampling up to 24 hours following initiation. […] Colonic dosing occurred using a nasoenteral tube. […] The intragastric pH profile were determined.
QUANTITY MEASURED: Cmax (ng/mL)

molecule="COc1ccc2nc([S@@+]([O-])Cc3ncc(C)c(OC)c3C)[nH]c2c1 [Esomeprazole]" value=727

====

Test: Colonic intubation study: plasma pharmacokinetics of rabeprazole and esomeprazole
Format: in vivo, human
Details: male, human, plasma, po, 20 mg, TRT C: rabeprazole 20 mg oral tablet; subset N = 14; read-out: AUCinf (mean)
Procedure: A single-dose, open-label, partially randomized, five-treatment, five-period, crossover pilot study was performed in healthy males to determine relative pharmacokinetics of rabeprazole, and comparators when dosed either orally or colonically. The study was a single dose study with blood sampling up to 24 hours following initiation. […] Colonic dosing occurred using a nasoenteral tube. […] The intragastric pH profile were determined.
QUANTITY MEASURED: AUC(0-inf) (ng·h/mL)

compound="COCCCOc1ccnc(C[S+]([O-])c2nc3ccccc3[nH]2)c1C (stereo not shown)" value=697

====

Assay: Colonic intubation study: plasma pharmacokinetics of rabeprazole and esomeprazole
Assay type: in vivo, human
Conditions: male, human, plasma, other: colonic (transverse colon, via nasoenteral tube), 30 mg, TRT A: rabeprazole 30 mg solution in the colon over 20 hours; subset N = 14
QUANTITY MEASURED: Cmax (ng/mL)

compound="COCCCOc1ccnc(C[S+]([O-])c2nc3ccccc3[nH]2)c1C (stereo not shown)" result_units=ng/mL value=18.7

====

Experiment: Colonic intubation study: plasma pharmacokinetics of rabeprazole and esomeprazole
Assay type: in vivo, human
Conditions: male, human, plasma, other: colonic (nasoenteral tube into the transverse colon), 30 mg, TRT A: rabeprazole 30 mg solution in the colon over 20 hours; subset N = 14; read-out: AUCinf (mean)
QUANTITY MEASURED: AUC(0-inf)

compound="COCCCOc1ccnc(C[S+]([O-])c2nc3ccccc3[nH]2)c1C (stereo not shown)" quantity_measured=AUC(0-inf) value="343 ng·h/mL"

====

Assay: Colonic intubation study: plasma pharmacokinetics of rabeprazole and esomeprazole
Type: in vivo, human
Conditions: male, human, plasma, other: colonic (nasoenteral tube into the transverse colon), 60 mg, TRT B: rabeprazole 60 mg solution in the colon over 20 hours; subset N = 14
QUANTITY MEASURED: AUC(0-t) (ng·h/mL)

molecule="COCCCOc1ccnc(C[S+]([O-])c2nc3ccccc3[nH]2)c1C (stereo not shown)" value=586

====

Assay: Colonic intubation study: plasma pharmacokinetics of rabeprazole and esomeprazole
Format: in vivo, human
Conditions: male, human, plasma, po, 40 mg, TRT E: esomeprazole 40 mg oral tablet; N = 19
QUANTITY MEASURED: AUC(0-t) (ng·h/mL)

structure=COc1ccc2nc([S@@+]([O-])Cc3ncc(C)c(OC)c3C)[nH]c2c1 result_units=ng·h/mL value=1870

====

Assay: Colonic intubation study: plasma pharmacokinetics of rabeprazole and esomeprazole
Format: in vivo, human
Settings: male, human, plasma, other: colonic (nasoenteral tube into the transverse colon), 60 mg, TRT B: rabeprazole 60 mg solution in the colon over 20 hours; N = 19; read-out: AUCinf (mean)
QUANTITY MEASURED: AUC(0-inf) (ng·h/mL)

molecule="COCCCOc1ccnc(C[S+]([O-])c2nc3ccccc3[nH]2)c1C (stereo not shown)" result_units=ng·h/mL value=599

====

Assay: Colonic intubation study: plasma pharmacokinetics of rabeprazole and esomeprazole
Type: in vivo, human
Details: male, human, plasma, other: colonic (transverse colon, via nasoenteral tube), 30 mg, TRT A: rabeprazole 30 mg solution in the colon over 20 hours; subset N = 14; read-out: Tmax (median)
QUANTITY MEASURED: Tmax (h)

compound="COCCCOc1ccnc(C[S+]([O-])c2nc3ccccc3[nH]2)c1C (stereo not shown)" value=18

====

Test: Colonic intubation study: plasma pharmacokinetics of rabeprazole and esomeprazole
Type: in vivo, human
Details: male, human, plasma, po, 20 mg, TRT C: rabeprazole 20 mg oral tablet; subset N = 14
QUANTITY MEASURED: Cmax (ng/mL)

molecule="COCCCOc1ccnc(C[S+]([O-])c2nc3ccccc3[nH]2)c1C (stereo not shown)" value=267

====

Assay: Colonic intubation study: plasma pharmacokinetics of rabeprazole and esomeprazole
Format: in vivo, human
Details: male, human, plasma, po, 40 mg, TRT E: esomeprazole 40 mg oral tablet; subset N = 14
QUANTITY MEASURED: AUC(0-t) (ng·h/mL)

compound="COc1ccc2nc([S@@+]([O-])Cc3ncc(C)c(OC)c3C)[nH]c2c1 [Esomeprazole]" quantity_measured=AUC(0-t) result_units=ng·h/mL value=2270

====

Experiment: Colonic intubation study: plasma pharmacokinetics of rabeprazole and esomeprazole
Assay type: in vivo, human
Settings: male, human, plasma, other: colonic (nasoenteral tube into the transverse colon), 60 mg, TRT B: rabeprazole 60 mg solution in the colon over 20 hours; N = 19; read-out: t1/2 (median) (converted)
QUANTITY MEASURED: half-life

molecule="COCCCOc1ccnc(C[S+]([O-])c2nc3ccccc3[nH]2)c1C (stereo not shown)" value="1.9 h"

====

Assay: Colonic intubation study: plasma pharmacokinetics of rabeprazole and esomeprazole
Type: in vivo, human
Conditions: male, human, plasma, other: colonic (nasoenteral tube into the transverse colon), 60 mg, TRT B: rabeprazole 60 mg solution in the colon over 20 hours; subset N = 14; read-out: AUCinf (mean)
QUANTITY MEASURED: AUC(0-inf) (ng·h/mL)

molecule="COCCCOc1ccnc(C[S+]([O-])c2nc3ccccc3[nH]2)c1C (stereo not shown)" quantity_measured=AUC(0-inf) value=646

====

Assay: Colonic intubation study: plasma pharmacokinetics of rabeprazole and esomeprazole
Format: in vivo, human
Conditions: male, human, plasma, other: colonic (nasoenteral tube into the transverse colon), 30 mg, TRT A: rabeprazole 30 mg solution in the colon over 20 hours; N = 19; read-out: Tmax (median)
QUANTITY MEASURED: Tmax

molecule="COCCCOc1ccnc(C[S+]([O-])c2nc3ccccc3[nH]2)c1C (stereo not shown) [Rabeprazole]" quantity_measured=Tmax value="18 h"

====

Experiment: Colonic intubation study: plasma pharmacokinetics of rabeprazole and esomeprazole
Assay type: in vivo, human
Details: male, human, plasma, po, 40 mg, TRT E: esomeprazole 40 mg oral tablet; N = 19; read-out: AUCinf (mean)
QUANTITY MEASURED: AUC(0-inf) (ng·h/mL)

structure=COc1ccc2nc([S@@+]([O-])Cc3ncc(C)c(OC)c3C)[nH]c2c1 quantity_measured=AUC(0-inf) value=1910

====

Test: Colonic intubation study: plasma pharmacokinetics of rabeprazole and esomeprazole
Assay type: in vivo, human
Conditions: male, human, plasma, other: colonic (nasoenteral tube into the transverse colon), 60 mg, TRT B: rabeprazole 60 mg solution in the colon over 20 hours; subset N = 14; read-out: t1/2 (median) (converted)
QUANTITY MEASURED: half-life (min)

compound="COCCCOc1ccnc(C[S+]([O-])c2nc3ccccc3[nH]2)c1C (stereo not shown) [Rabeprazole]" value=126

====

Assay: Colonic intubation study: plasma pharmacokinetics of rabeprazole and esomeprazole
Assay type: in vivo, human
Conditions: male, human, plasma, po, 20 mg, TRT C: rabeprazole 20 mg oral tablet; subset N = 14; read-out: Tmax (median)
QUANTITY MEASURED: Tmax (h)

molecule="COCCCOc1ccnc(C[S+]([O-])c2nc3ccccc3[nH]2)c1C (stereo not shown)" quantity_measured=Tmax result_units=h value=6

====

Assay: Colonic intubation study: plasma pharmacokinetics of rabeprazole and esomeprazole
Assay type: in vivo, human
Settings: male, human, plasma, other: colonic (nasoenteral tube into the transverse colon), 60 mg, TRT B: rabeprazole 60 mg solution in the colon over 20 hours; N = 19; read-out: Tmax (median)
Method: A single-dose, open-label, partially randomized, five-treatment, five-period, crossover pilot study was performed in healthy males to determine relative pharmacokinetics of rabeprazole, and comparators when dosed either orally or colonically. The study was a single dose study with blood sampling up to 24 hours following initiation. […] Colonic dosing occurred using a nasoenteral tube. […] The intragastric pH profile were determined.
QUANTITY MEASURED: Tmax (h)

compound="COCCCOc1ccnc(C[S+]([O-])c2nc3ccccc3[nH]2)c1C (stereo not shown)" value=18
